target: human P450 1B1 (Homo sapiens); assay: biochemical
Sequence (Q16678 whole entry): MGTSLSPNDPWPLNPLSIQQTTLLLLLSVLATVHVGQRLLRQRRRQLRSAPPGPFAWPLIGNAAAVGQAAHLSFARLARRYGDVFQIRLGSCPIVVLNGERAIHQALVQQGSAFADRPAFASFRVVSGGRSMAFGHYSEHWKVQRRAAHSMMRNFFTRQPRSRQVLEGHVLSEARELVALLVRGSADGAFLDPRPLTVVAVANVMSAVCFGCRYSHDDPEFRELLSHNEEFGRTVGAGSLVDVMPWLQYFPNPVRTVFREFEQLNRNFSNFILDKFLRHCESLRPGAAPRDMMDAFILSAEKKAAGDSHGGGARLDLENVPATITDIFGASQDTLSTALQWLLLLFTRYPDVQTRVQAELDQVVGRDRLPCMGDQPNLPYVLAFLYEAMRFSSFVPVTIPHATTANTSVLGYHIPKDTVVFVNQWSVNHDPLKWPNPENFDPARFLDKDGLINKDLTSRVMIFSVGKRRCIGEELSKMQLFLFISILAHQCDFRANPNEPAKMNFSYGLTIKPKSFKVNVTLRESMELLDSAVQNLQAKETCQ
pIC50: −log10 of the molar value.
Returns one of Satisfied or Not satisfied; Satisfied when pIC50 is >= 7.

molecule	category_label
COc1ccc(-c2cc(=O)c3ccc(O)c(O)c3o2)cc1OC [34DM78DHF, 3′,4′-dimethoxy-7,8-dihydroxyflavone]	Not satisfied
COc1cccc(-c2cc(=O)c3ccc(O)c(O)c3o2)c1 [3M78DHF, 3′-methoxy-7,8-dihydroxyflavone]	Not satisfied
COc1ccc(-c2cc(=O)c3ccccc3o2)cc1OC	Not satisfied
COc1ccccc1-c1cc(=O)c2ccc(O)c(O)c2o1 [2M78DHF, 2′-methoxy-7,8-dihydroxyflavone]	Not satisfied
CC#Cc1ccc(-c2ccccc2)cc1	Not satisfied
CC#Cc1ccc2ccc3cccc4ccc1c2c34	Satisfied
C#Cc1cc2ccc3cccc4ccc(c1)c2c34	Satisfied
Oc1cc(O)cc(/C=C/c2ccc(O)c(O)c2)c1 [Piceatannol (Pice), Piceatannol, reference compound]	Not satisfied
C#Cc1cc2cccc3ccc4cccc1c4c32	Not satisfied
c1ccc2c(c1)ccc1ccccc12 [Phenanthrene, phenanthrene, reference compound]	Not satisfied

--- query ---
API: above_or_equal(metric=pIC50, cutoff=7) for item c1ccc(-c2ccccc2)cc1 [biphenyl, reference compound] Not satisfied
